experiment: Antiplatelet activity in human platelet rich plasma assessed as inhibition of platelet factor-3 release at 100 ug/ml after 20 mins relative to control
Format: functional
Class membership depends on %max alone; the intervals are bottom range (below 0.01%), center range (0.01% to below 0.06%), top range (0.06% or more)

Ask | Category lookup for the compound CC(/N=C1\CCCCCN1)c1ccc2sc3ccccc3c2c1.Cl (configuration not stated)
Reply | center range

Ask | Band assignment needed for CC(/N=C1\CCCCCN1)c1ccc(C=C2c3ccccc3-c3ccccc32)cc1.Cl (configuration not stated) please.
Reply | center range

Ask | Dear colleague, I would appreciate it if you could identify the bin for CC(/N=C1\CCCCCN1)c1ccc(C=C(c2ccccc2)c2ccccc2)cc1.Cl (configuration not stated) and reply at your convenience.
Reply | top range

Ask | Each compound maps to one class by %max. Which class for CCN(CC)CCN(CC(O)c1ccccc1)c1cc(Cl)ccc1Cl (configuration not stated) ?
Reply | top range

Ask | Hey, which category is CC(/N=C1\CCCCCN1)c1ccc(CCc2ccccc2)cc1.Cl (configuration not stated) in, do you know?
Reply | center range

Ask | Please report the category associated with CC(/N=C1\CCCCCN1)c1ccc(C2CCCCC2)cc1.Cl (configuration not stated) , nothing else.
Reply | bottom range

Ask | Consider CC(/N=C1/CCCCCN1)c1cccc2ccccc12.Cl (configuration not stated) . To which %max class does it belong?
Reply | bottom range

Ask | Field: class (%max) — entry: O=C(CO)OC(CC1CCCCN1)c1ccc(C=C2c3ccccc3-c3ccccc32)cc1 (configuration not stated)
Reply | top range

Lab note: next compound to report on.
Ask | For this compound, which bin applies? CC(/N=C1\CCCCCN1)c1ccc(-c2ccccc2)cc1.Cl (configuration not stated)
Reply | center range

* * *

System: Cavia porcellus
experiment: Antiplatelet activity in guinea pig assessed as inhibition of 0.45 ug/ml ADP-induced platelet aggregation measured as area between aggregation curve and baseline transmittance at 30 mg/kg, po for 4 days measured at 2 hrs post last dose by aggregometric analysis relative to control
Type: functional
The entries below come with measured inhibition in vivo at 30 mg/kg values attached.
Output spec: scalar in %, unitless text.

Ask | inhibition in vivo at 30 mg/kg for CC(/N=C1\CCCCCN1)c1ccc2sc3ccccc3c2c1.Cl (centres undefined) ?
Reply | 0

Ask | Entry CCCC(C/N=C1/CCCCCN1)(c1ccccc1)c1ccccc1.Cl has what inhibition in vivo at 30 mg/kg?
Reply | 18

Ask | Request the reported inhibition in vivo at 30 mg/kg associated with CC(/N=C1\CCCCCN1)c1ccc(Oc2ccccc2)cc1.Cl (centres undefined)
Reply | 53

Further cases:
Ask | I would be grateful if you could share the reported inhibition in vivo at 30 mg/kg for CC(/N=C1/CCCCCN1)c1cccc2ccccc12.Cl (centres undefined) .
Reply | 33

* * *

Test system: Cavia porcellus
experiment: Antiplatelet activity in guinea pig assessed as 0.45 ug/ml ADP-induced platelet aggregation measured as change in light transmittance at 100 mg/kg, po for 4 days measured at 2 hrs post last dose by aggregometric analysis
measurement name: ΔT % at 100 mg/kg (%)
State just the number; it will be interpreted in %.

Example molecules with recorded ΔT % at 100 mg/kg:
Ask | # get_value(readout='ΔT % at 100 mg/kg', item= CC(/N=C1/CCCCCN1)c1cccc2ccccc12.Cl (centres undefined) )
Reply | 7.1

Ask | Value lookup for ΔT % at 100 mg/kg; key = CC(/N=C1\CCCCCN1)c1ccc(Oc2ccccc2)cc1.Cl (centres undefined)
Reply | 17.7

Ask | What value of ΔT % at 100 mg/kg has been recorded for this entry: CC(/N=C1\CCCCCN1)c1ccc2sc3ccccc3c2c1.Cl (centres undefined)
Reply | 32

# context switch: different molecule, same ΔT % at 100 mg/kg
Ask | ΔT % at 100 mg/kg lookup needed for CCCC(C/N=C1/CCCCCN1)(c1ccccc1)c1ccccc1.Cl , thanks.
Reply | 34.3

* * *

experiment: Antiplatelet activity in human platelet rich plasma assessed as inhibition of ADP-induced platelet aggregation at 100 ug/ml after 20 mins by aggregometric analysis relative to control
Assay type: functional
measurement name: inhibition at 100 µg/mL (%)
API: value field is a number in %; no unit string.

Ask | # query: inhibition at 100 µg/mL of entry CC(/N=C1\CCCCCN1)c1ccccc1OCCc1ccccc1 (stereo not drawn)
Reply | 81

Further cases:
Ask | Fill blank: measured inhibition at 100 µg/mL of the molecule CCCCCCCCCCCCCc1ccc(C(C)/N=C2\CCCCCN2)cc1 (stereo not drawn) is ____.
Reply | 100

Ask | If you can, please state the reported inhibition at 100 µg/mL value of CC(/N=C1\CCCCCN1)c1ccc(-c2ccccc2)cc1.Cl (stereo not drawn) .
Reply | 100

Ask | Consider the molecule shown here: CCCC(C/N=C1/CCCCCN1)(c1ccccc1)c1ccccc1.Cl What is its recorded inhibition at 100 µg/mL?
Reply | 100

Ask | Fill blank: measured inhibition at 100 µg/mL of the molecule CC(/N=C1\CCCCCN1)c1ccc2sc3ccccc3c2c1.Cl (stereo not drawn) is ____.
Reply | 100

* * *

Listed next: entries and their corresponding inhibition at 100 µg/mL.
experiment: Antiplatelet activity in human platelet rich plasma assessed as inhibition of ADP-induced platelet aggregation at 100 ug/ml after 20 mins by aggregometric analysis relative to control
Type: functional
Give a bare numeral; the unit % is implied.

For orientation, consider the following solved cases.
Ask | Record request: inhibition at 100 µg/mL value, item CCN(CC)CCN(CC(O)c1ccccc1)c1cc(Cl)ccc1Cl (stereo unspecified)
Reply | 62

Ask | Item CC(/N=C1/CCCCCN1)c1cccc2ccccc12.Cl (stereo unspecified) has what recorded inhibition at 100 µg/mL?
Reply | 70

Ask | So what does the record say about inhibition at 100 µg/mL for CC(/N=C1\CCCCCN1)c1ccc(CCc2ccccc2)cc1.Cl (stereo unspecified) ?
Reply | 78

Ask | Value lookup for inhibition at 100 µg/mL; key = CCCCCCCCCCCCOc1ccc(C(C)/N=C2\CCCCCN2)cc1 (stereo unspecified)
Reply | 64

Ask | What value of inhibition at 100 µg/mL has been reported for the following compound? CC(/N=C1\CCCCCN1)c1ccc(C=C2c3ccccc3-c3ccccc32)cc1.Cl (stereo unspecified)
Reply | 100

Shifting focus to the compound that follows.
Ask | Would you mind telling me what inhibition at 100 µg/mL value was observed for CC(/N=C1\CCCCCN1)c1ccc2oc3ccccc3c2c1 (stereo unspecified) ?
Reply | 67

* * *

experiment: Antiplatelet activity in human platelet rich plasma assessed as inhibition of ADP-induced platelet aggregation at 100 ug/ml after 20 mins by aggregometric analysis relative to control
Assay type: functional
Let's look at some molecules and their measured inhibition at 100 µg/mL.
# number only, unit % dropped from output

Use the examples below as a reference point.
Ask | For CC(/N=C1\CCCCCN1)c1ccc(OCCCc2ccccc2)cc1 (stereo unspecified) , what is its reported inhibition at 100 µg/mL?
Reply | 74

Ask | Can you look up the measured inhibition at 100 µg/mL of CC(/N=C1\CCCCCN1)c1ccc(Oc2ccccc2)cc1.Cl (stereo unspecified) for me?
Reply | 100

Ask | Which inhibition at 100 µg/mL value belongs to CC(/N=C1\CCCCCN1)c1ccc(OCCCOc2ccccc2)cc1 (stereo unspecified) ?
Reply | 100

Ask | # get_value(readout='inhibition at 100 µg/mL', item= Cc1cc2c(cc1C(C)/N=C1\CCCCCN1)C(C)(C)CCC2(C)C (stereo unspecified) )
Reply | 77

Ask | Which inhibition at 100 µg/mL is listed for CC(/N=C1\CCCCCN1)c1ccc(C=C(c2ccccc2)c2ccccc2)cc1.Cl (stereo unspecified) ?
Reply | 100

Ask | What does the record list as inhibition at 100 µg/mL for CC(/N=C1\CCCCCCCN1)c1ccc2c(c1)Cc1ccccc1-2 (stereo unspecified) ?
Reply | 100

Ask | Which inhibition at 100 µg/mL value is on record for CC(/N=C1\CCCCCN1)c1ccc2c(c1)Cc1ccccc1-2.Cl (stereo unspecified) ?
Reply | 100

Ask | Look at this molecule and give its reported inhibition at 100 µg/mL. CC(/N=C1\CCCN1C)c1ccc(CCc2ccccc2)cc1 (stereo unspecified)
Reply | 100

Ask | Which inhibition at 100 µg/mL is reported for this molecule? CC(/N=C1\CCCCCN1)c1cc(C(C)(C)C)cc2c1CCC2(C)C (stereo unspecified)
Reply | 100

Ask | Reported inhibition at 100 µg/mL, molecule CC(/N=C1\CCCCCN1)c1ccc(C2CCCCC2)cc1.Cl (stereo unspecified) : ____
Reply | 100

Now look at this one.
Ask | Bench note: what inhibition at 100 µg/mL did CC(/N=C1\CCCN1)c1ccc2oc3ccccc3c2c1 (stereo unspecified) show?
Reply | 100
